- target system: full-length human PRMT8 isoform 1 (Homo sapiens)
- Sequence (Q9NR22 whole entry, canonical isoform): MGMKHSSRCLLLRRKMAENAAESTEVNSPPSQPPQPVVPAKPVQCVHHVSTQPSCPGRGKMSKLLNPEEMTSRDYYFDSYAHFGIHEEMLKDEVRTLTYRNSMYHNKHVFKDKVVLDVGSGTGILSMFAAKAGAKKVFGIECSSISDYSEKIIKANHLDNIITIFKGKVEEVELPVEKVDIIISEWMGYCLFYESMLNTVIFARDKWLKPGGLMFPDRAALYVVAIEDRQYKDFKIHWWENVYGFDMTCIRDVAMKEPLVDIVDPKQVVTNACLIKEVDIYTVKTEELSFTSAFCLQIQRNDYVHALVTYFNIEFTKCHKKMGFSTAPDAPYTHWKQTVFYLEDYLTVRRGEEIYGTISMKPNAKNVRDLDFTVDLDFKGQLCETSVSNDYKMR
- protocol notes: PRMT8 Biochemical Assay (3H-SAM Flashplate, peptide substrate)
- run parameters: single experiment or average of multiple experiments; read-out: Biochemical IC50 PRMT8
Structures can show the parent of a compound that is named as a salt.
// classify(record): look up IC50 in ranges range 1 = under 0.02 µM, range 2 = from 0.02 µM up to 0.3 µM, range 3 = 0.3 µM and over

{"columns": ["compound", "category label"],
 "data": [
  ["CNCCN(C)Cc1c[nH]nc1[C@H]1CC[C@@]2(CCN(Cc3cc(F)cc(F)c3)C2=O)CC1 [Compound 126]", "range 1"],
  ["CNCCN(C)Cc1c[nH]nc1[C@H]1CC[C@H](OCCOc2ccc(OC)cc2)CC1 [Compound 186]", "range 2"],
  ["CN(CCN)Cc1c[nH]nc1C1CCC(C)(C)CC1 [Compound 38]", "range 2"],
  ["CNCCN(C)Cc1c[nH]nc1[C@H]1CC[C@@H](N(CC(C)C)C(=O)CCOc2ccccc2)CC1 [Compound 231]", "range 1"],
  ["CNCCN(C)Cc1c[nH]nc1[C@H]1CC[C@@]2(CCN(Cc3ccc(OCCOC)cc3)C2=O)CC1 [Compound 120]", "range 2"],
  ["CCCc1n[nH]cc1CN(C)CCN [Compound 29]", "range 3"],
  ["CNCCN(C)Cc1c[nH]nc1C1CCC(OCCOc2ccccc2)CC1 (stereo not drawn) [Compound 136]", "range 1"],
  ["CNCCN(C)Cc1cn(C)nc1[C@H]1CC[C@@]2(CC1)CC(C)(C)CO2 [Compound 205, hydrochloride]", "range 1"],
  ["CCOC1CC(OCC)CC(c2n[nH]cc2CN(C)CCNC)C1 (stereo not drawn) [Compound 132]", "range 3"],
  ["CNCCN(C)Cc1c[nH]nc1[C@H]1CC[C@@]2(CCN(Cc3ccc(F)cc3)C2=O)CC1 [Compound 125]", "range 1"],
  ["CNCCN(C)Cc1c[nH]nc1[C@H]1CCC(C)(C)[C@@H](C(=O)NCCOC)C1 [Compound 268]", "range 2"],
  ["CCOCC1CC(c2n[nH]cc2CN(C)CCNC)CC(COCC)C1(C)C (stereo not drawn) [Compound 87]", "range 3"],
  ["CNCCN(C)Cc1c[nH]nc1[C@H]1CC[C@@H](N(CCOC)C(=O)CCC(C)C)CC1 [Compound 261]", "range 1"],
  ["CNCCN(C)Cc1c[nH]nc1[C@H]1CC[C@@H](N(CC(C)C)C(=O)CCOC)CC1 [Compound 233]", "range 2"],
  ["CNCCN(C)Cc1c[nH]nc1C1CCC2(CC1)CCN(CC(C)C)C2=O (stereo not drawn) [Compound 164]", "range 1"],
  ["CNCCN(C)Cc1c[nH]nc1[C@H]1CC[C@@H](N(CCC(C)C)C(=O)CCOC)CC1 [Compound 235]", "range 2"],
  ["CNCCN(C)Cc1c[nH]nc1C1CC(COC)C(C)(C)C(COC)C1 (stereo not drawn) [Compound 86]", "range 3"]
]}

---

IC50 overview
- target system: full-length human PRMT8 isoform 1 (Homo sapiens)
- protocol notes: PRMT8 Biochemical Assay (3H-SAM Flashplate, peptide substrate)
- run parameters: read-out: Biochemical IC50 PRMT8
observable: IC50

{"columns": ["compound", "data value"],
 "data": [
  ["CNCCN(C)Cc1cnn(C)c1[C@H]1CC[C@]2(CC1)CC(C)(C)CO2 [Compound 257]", "< 100 nM"],
  ["CNCCN(C)Cc1c[nH]nc1[C@H]1CC[C@@H](N(CCOc2ccccc2)C(=O)CC(C)C)CC1 [Compound 222]", "< 100 nM"],
  ["CNCCN(C)Cc1c[nH]nc1[C@H]1CC[C@H](N(CC(C)C)C(=O)CC2CCOCC2)CC1 [Compound 193]", "< 100 nM"],
  ["CNCCN(C)Cc1c[nH]nc1C1CC(C)OC(C)C1 (centres unmarked) [Compound 179]", "< 100 nM"],
  ["CNCCN(C)Cc1c[nH]nc1[C@H]1CC[C@H](C(=O)N(CCCOC)CCC(C)C)CC1 [Compound 213]", "101 to 1000 nM"],
  ["CCCOC1CC(OCCC)CC(c2n[nH]cc2CN(C)CCNC)C1 (centres unmarked) [Compound 131]", "1010 to 3000 nM"],
  ["CNCCN(C)Cc1c[nH]nc1C1CCC(=O)N(Cc2ccccc2)C1 (centres unmarked) [Compound 115]", "101 to 1000 nM"],
  ["CNCCN(C)Cc1c[nH]nc1C1CCC(C)(C)C(COCC(C)C)C1 (centres unmarked) [Compound 95]", "< 100 nM"]
]}
